biological target: GHS-R (Homo sapiens); construct: expressed in transfected cells; host or cells: COS-7 cells; experiment: GHS-R competition binding assay (Ki of GHS-R antagonizing compounds)
Sequence (Q92847 whole entry, species assumed): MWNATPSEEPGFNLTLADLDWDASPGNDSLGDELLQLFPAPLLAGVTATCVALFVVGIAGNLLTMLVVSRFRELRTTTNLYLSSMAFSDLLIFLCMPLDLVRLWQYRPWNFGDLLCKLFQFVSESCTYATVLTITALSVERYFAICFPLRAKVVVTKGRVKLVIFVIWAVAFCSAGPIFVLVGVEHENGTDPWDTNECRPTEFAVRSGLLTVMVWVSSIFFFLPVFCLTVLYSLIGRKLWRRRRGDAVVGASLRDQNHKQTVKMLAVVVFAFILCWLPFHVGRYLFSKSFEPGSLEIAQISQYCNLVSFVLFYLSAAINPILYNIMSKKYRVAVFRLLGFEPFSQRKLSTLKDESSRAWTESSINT
property.name: Ki

Use the examples below as a reference point.
Prompt line: Which measured Ki value corresponds to CCNC(=O)Nc1ccccc1-c1ccc(C(=O)[C@@H](CCc2ccccc2)NS(=O)(=O)CCCN(CC)CC)cc1 [Compound 172] ?
Response line: 100 to 1000 nM

Prompt line: # repeat for CS(=O)(=O)N1CC2(CCN(C(=O)[C@@H](COCc3ccccc3)NS(=O)(=O)CCN3CCC3)CC2)c2ccccc21 [Compound 134]
Response line: > 1000 nM

Dear reader, for each entry below, please note its Ki.
1. CS(=O)(=O)N1CC2(CCN(C(=O)[C@@H](CCCc3ccccc3)NS(=O)(=O)CCCN=[N+]=[N-])CC2)c2ccccc21 [Compound 220]
2. CCN(CC)CCCS(=O)(=O)N[C@H](CCc1ccccc1)C(=O)NCc1ccc(-c2ccccc2-c2nn[nH]n2)cc1 [Compound 161]

Response line:
1: 100 to 1000 nM; 2: 100 to 1000 nM

These entries and their values trace back to patent US20050261332A1.
